Origin of measurements: ChEMBL document CHEMBL5120902

Property: GI50 at 84 h; scope: individual compounds
assay: Cytotoxicity against rat 3Y1 cells assessed as cell growth inhibition incubated for 84 hrs by MTT assay; type: toxicity, cell-based
readout-type: GI50 at 84 h (µM)

{"line-notation": "C/C=C(\\C)[C@@H](O)[C@H](C)[C@H](O)C/C=C(C)/C=C(\\C)C/C(C)=C/C/C=C(\\C)[C@@H](O)[C@@H](C)[C@H]1CC[C@H](CC)C(=O)O1", "numeric-value": 3.8}
{"line-notation": "C/C=C(\\C)[C@@H](O)[C@H](C)[C@H](O)C/C=C(C)/C=C(\\C)C/C(C)=C/C/C=C(\\C)[C@@H](O)[C@@H](C)[C@H]1CC[C@H](CCCC)C(=O)O1", "numeric-value": 32}
{"line-notation": "C/C=C(\\C)[C@@H](O)[C@H](C)[C@H](O)C/C=C(C)/C=C(\\C)C/C(C)=C/C/C=C(\\C)[C@@H](O)[C@@H](C)[C@H]1CC[C@H](CCC)C(=O)O1", "numeric-value": 31}

====

assay: Selectivity ratio of GI50 for cytotoxicity against rat 3Y1 cells to IC50 for antitrypanosomal activity against Trypanosoma cruzi epimastigotes; assay type: toxicity, cell-based
Property: selectivity ratio; scope: individual compounds

{"line-notation": "C/C=C(\\C)[C@@H](O)[C@H](C)[C@H](O)C/C=C(C)/C=C(\\C)C/C(C)=C/C/C=C(\\C)[C@@H](O)[C@@H](C)[C@H]1CC[C@H](CCC)C(=O)O1", "selectivity ratio": 4.9}
{"line-notation": "C/C=C(\\C)[C@@H](O)[C@H](C)[C@H](O)C/C=C(C)/C=C(\\C)C/C(C)=C/C/C=C(\\C)[C@@H](O)[C@@H](C)[C@H]1CC[C@H](CC)C(=O)O1", "selectivity ratio": 0.22}
{"line-notation": "C/C=C(\\C)[C@@H](O)[C@H](C)[C@H](O)C/C=C(C)/C=C(\\C)C/C(C)=C/C/C=C(\\C)[C@@H](O)[C@@H](C)[C@H]1CC[C@H](CCCC)C(=O)O1", "selectivity ratio": 2.8}
